- Study system: androgen receptor (AR-LBD) (Rattus norvegicus)
- Construct: 5 μL of 2×AR-LBD/Fluoromone AL Red Complex contained in the kit; purchased Invitrogen
- Sequence (P15207 651-882 limits assumed): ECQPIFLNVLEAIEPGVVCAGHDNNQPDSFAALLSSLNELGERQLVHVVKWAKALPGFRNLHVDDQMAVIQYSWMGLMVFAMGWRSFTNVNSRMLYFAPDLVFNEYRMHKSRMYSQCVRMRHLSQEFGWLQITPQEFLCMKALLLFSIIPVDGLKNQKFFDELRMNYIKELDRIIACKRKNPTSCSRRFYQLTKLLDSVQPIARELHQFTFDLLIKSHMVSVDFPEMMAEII
- Assay info: Evaluation of androgen receptor affinity (PolarScreen Androgen Receptor Competitor Assay Kit, Red; fluorescence polarization)
- Test context: 22° C. for 5 hours, relative to binding rate of 1 μM DHT, read-out: AR affinity (pEC50) (converted)
Readout name: EC50 (nM)
Express it in nM; write the number only.

Molecular string: Cc1nc(CN(CCc2ccc(OC(F)(F)F)cc2)c2nc(C(=O)NS(C)(=O)=O)c(C)s2)cs1
Readout name: EC50
Obs value: 39.8
--
Molecular string: COc1ccc(CN(c2ccc(C#N)cc2)c2nc(C(=O)NS(C)(=O)=O)c(Br)s2)cc1
Readout name: EC50
Obs value: 63.1
--
Molecular string: CCCCN(c1ccc(C#N)cc1)c1nc(C(=O)NS(C)(=O)=O)c(C)s1
Readout name: EC50
Obs value: 251
--
Molecular string: Cc1sc(N(CCc2ccc(OC(F)F)cc2)Cc2nc(C3CC3)no2)nc1C(=O)NS(C)(=O)=O
Readout name: EC50
Obs value: 158
--
Molecular string: Cc1sc(N(Cc2ccccc2)c2ccncc2)nc1C(=O)NS(C)(=O)=O
Readout name: EC50
Obs value: 1260

// query Report value only: EC50, androgen receptor (AR-LBD) (Rattus norvegicus), Cc1sc(N(Cc2cc(F)cc(C(F)(F)F)c2)c2ccc(C#N)cc2)nc1C(=O)NS(C)(=O)=O
// result 25.1

// query Report value only: EC50, androgen receptor (AR-LBD) (Rattus norvegicus), Cc1sc(N(Cc2ccc(-c3ccc(F)cc3)nc2)c2ccc(C#N)cc2)nc1C(=O)NS(C)(=O)=O
// result 100

// query Report value only: EC50, androgen receptor (AR-LBD) (Rattus norvegicus), Cc1sc(N(CCc2ccccc2)Cc2ccccc2)nc1C(=O)NS(C)(=O)=O
// result 100

====

# reported EC50; entries follow
- Study system: androgen receptor (AR-LBD) (Rattus norvegicus)
- Construct: 5 μL of 2×AR-LBD/Fluoromone AL Red Complex contained in the kit; purchased Invitrogen
- Assay info: Evaluation of androgen receptor affinity (PolarScreen Androgen Receptor Competitor Assay Kit, Red; fluorescence polarization)
- Test context: 22° C. for 5 hours, relative to binding rate of 1 μM DHT, read-out: AR affinity (pEC50) (converted)
- Description: Evaluation of an Androgen Receptor Affinity To examine the interaction of a compound with an androgen receptor, evaluation was carried out in accordance with the following procedure using PolarScreen™ Androgen Receptor Competitor Assay Kit, Red (Invitrogen). To 2 wells each of a 384 well black plate was added 5 μL of the compound solution. […] After 5 hours of the reaction, fluorescence polarization was measured and the affinity was evaluated. […]
Express it in nM; write the number only.

Study these solved cases before continuing.
Molecular string: Cc1sc(N(Cc2ncc(Cl)cc2Cl)c2ccc(C#N)cc2)nc1C(=O)NS(C)(=O)=O
U: nM
EC50: 251
//
Molecular string: COc1ccc(CN(c2ccc(C#N)cc2)c2nc(C(=O)NS(C)(=O)=O)c(C)s2)cc1
U: nM
EC50: 63.1

// query Report EC50, nothing else, for this compound: Cc1oc(N(Cc2cccc(Cl)c2)c2ccc(C#N)cc2)nc1C(=O)NS(C)(=O)=O
// result 79.4

// query Report EC50, nothing else, for this compound: Cc1sc(N(CCc2ccc(Cl)cc2)Cc2nc(C3CC3)no2)nc1C(=O)NS(C)(=O)=O
// result 126
